test system: male ddY mice; experiment: Rotarod performance test-2; format: in vivo; conditions: Table 3; time of fall relative to control compound
// classify: if (Ratio Relative to the Control Compound < 6) TRUE else FALSE

• O=c1c(-c2c(F)cccc2F)cc2c(n1-c1cccnc1)COc1cccnc1-2 = FALSE
• Cc1ccc(-n2c3c(cc(-c4cccc(F)c4C#N)c2=O)-c2ncccc2OC3)cn1 = FALSE
• O=c1c(-c2c(F)c(F)cc(F)c2F)cc2c(n1-c1cccnc1)COc1cccnc1-2 = TRUE

---

Entries annotated with measured Therapeutic Index
tested on: male ddY mice; assay: Murine 6 Hz convulsion models (6 Hz, 44 mA corneal stimulation); type: in vivo; details: TD50/ED50 (rotarod test-1 / 6 Hz convulsion model), mice
value.kind: Therapeutic Index

- N#Cc1c(F)cccc1-c1cc2c(n(-c3cccnc3)c1=O)COc1cc(F)cnc1-2 [Example 14]: 2.27
- Cc1ccc(-n2c3c(cc(-c4cccc(F)c4C#N)c2=O)-c2ncccc2OC3)cn1 [Example 3]: 2.04
- N#Cc1c(F)cccc1-c1cc2c(n(-c3cccnc3)c1=O)COc1cccc(F)c1-2 [Example 16]: 1.65
- O=c1c(-c2ccccc2F)cc2c(n1-c1ccccc1)COc1cccnc1-2 [Example 9]: 2.83
- Cc1ccc(-n2c3c(cc(-c4cccc(F)c4Cl)c2=O)-c2ncccc2OC3)cn1 [Example 4]: 1.67
- N#Cc1c(F)cccc1-c1cc2c(n(-c3cncnc3)c1=O)COc1cccnc1-2 [Example 18]: 2.02
- COc1cncc(-n2c3c(cc(-c4cccc(F)c4C#N)c2=O)-c2ncccc2OC3)c1 [Example 2]: 2.36
- N#Cc1c(F)ccc(F)c1-c1cc2c(n(-c3cccnc3)c1=O)COc1cccnc1-2 [Example 19]: 1.63
- N#Cc1nccnc1-c1cc2c(n(-c3ccsc3)c1=O)COc1cccnc1-2 [Example 8]: >1.65
- N#Cc1c(F)cccc1-c1cc2c(n(-c3cncc(F)c3)c1=O)COc1cccnc1-2 [Example 15]: 1.89
- N#Cc1ncccc1-c1cc2c(n(-c3ccsc3)c1=O)COc1cccnc1-2 [Example 7]: 1.75
